ASSAY_SYSTEM: Alpha-1A adrenergic receptor (Homo sapiens, UniProt P35348); further: assay procedure not described here
Sequence (P35348 whole entry): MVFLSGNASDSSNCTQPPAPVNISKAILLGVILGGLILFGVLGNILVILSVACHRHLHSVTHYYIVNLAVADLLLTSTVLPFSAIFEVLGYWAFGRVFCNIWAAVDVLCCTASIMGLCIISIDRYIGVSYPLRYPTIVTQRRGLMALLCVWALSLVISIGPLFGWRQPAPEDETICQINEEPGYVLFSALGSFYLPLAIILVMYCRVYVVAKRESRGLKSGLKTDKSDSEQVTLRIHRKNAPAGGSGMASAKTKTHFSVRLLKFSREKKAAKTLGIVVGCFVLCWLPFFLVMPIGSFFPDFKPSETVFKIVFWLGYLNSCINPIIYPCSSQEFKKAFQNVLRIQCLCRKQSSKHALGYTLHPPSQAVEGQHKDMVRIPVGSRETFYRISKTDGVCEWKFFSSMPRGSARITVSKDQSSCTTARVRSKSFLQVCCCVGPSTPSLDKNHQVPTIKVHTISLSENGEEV
Format: functional, cell-based
QUANTITY_KIND: AC50

Recorded results for 10 molecules are shown here.
| MOLECULE | AC50 |
| --- | --- |
| Cc1cc(N)c2ccccc2[n+]1CCCCCCCCCC[n+]1c(C)cc(N)c2ccccc21 | 3.21 µM |
| Cc1cc(NC(=O)C2=C(O)c3ccccc3S(=O)(=O)N2C)no1 | > 30 µM |
| Cc1onc(-c2ccccc2)c1C(=O)N[C@@H]1C(=O)N2[C@@H]1SC(C)(C)[C@@H]2C(=O)O | > 30 µM |
| COc1cc2c(cc1OC)CC(=O)N(CCCN(C)C[C@H]1Cc3cc(OC)c(OC)cc31)CC2 | > 30 µM |
| NCC(CC(=O)O)c1ccccc1 (stereo unspecified) | > 30 µM |
| CC[C@H](C)C[C@H](C)CCCCCCCCC(=O)N[C@H]1C[C@@H](O)[C@@H](NCCN)NC(=O)[C@@H]2[C@@H](O)CCN2C(=O)[C@H]([C@H](O)CCN)NC(=O)[C@H]([C@H](O)[C@@H](O)c2ccc(O)cc2)NC(=O)[C@@H]2C[C@@H](O)CN2C(=O)[C@H]([C@@H](C)O)NC1=O | 13 µM |
| C/C=C/C/C=C/CCC(=O)[C@H]1O[C@H]1C(N)=O | > 30 µM |
| CN1CCCCC1CCN1c2ccccc2Sc2ccc([S+](C)[O-])cc21 (stereo unspecified) | 0.0171 µM |
| CCOC(=O)C1=C[C@@H](OC(CC)CC)[C@H](NC(C)=O)[C@@H](N)C1 | > 30 µM |
| C=CCN1CC[C@]23CCCC[C@H]2[C@H]1Cc1ccc(O)cc13 | > 30 µM |

query: Param readout = AC50; param system = Alpha-1A adrenergic receptor (Homo sapiens, UniProt P35348); param query = CC(C)(C)NC[C@H](O)COc1cccc2c1CCCC2=O ; response: value; further: assay procedure not described here
result: > 30 µM

query: Repeat with Cc1ccccc1C(=O)Nc1ccc(C(=O)N2CCCC(N(C)C)c3ccccc32)cc1 (stereo unspecified)
result: 18.8 µM

query: Repeat with CCC(=O)O[C@]1(C(=O)CCl)[C@@H](C)C[C@H]2[C@@H]3C[C@H](F)C4=CC(=O)C=C[C@]4(C)[C@@]3(F)[C@@H](O)C[C@@]21C [HALOBETASOL PROPIONATE]
result: 13.1 µM

query: Repeat with O=C(O)c1cc(/N=N/c2ccc(O)c(C(=O)O)c2)ccc1O
result: > 30 µM

query: Repeat with OC[C@H]1O[C@@H](c2ccc(F)c(Cc3cc4ccccc4s3)c2)[C@H](O)[C@@H](O)[C@@H]1O
result: 22.2 µM

query: Repeat with CC(C)C[C@H](NC(=O)CNC(=O)c1cc(Cl)ccc1Cl)B(O)O
result: > 30 µM

query: Repeat with CC(=O)Oc1cc(C(F)(F)F)ccc1C(=O)O
result: > 30 µM

query: Repeat with CC[C@@H]([C@H](C)O)n1ncn(-c2ccc(N3CCN(c4ccc(OC[C@@H]5CO[C@@](Cn6cncn6)(c6ccc(F)cc6F)C5)cc4)CC3)cc2)c1=O
result: > 1 µM

query: Repeat with COC(=O)c1ccc(O)cc1
result: > 30 µM

query: Repeat with CC(C)N(CCNC(=O)CN1CCCC1=O)C(C)C
result: > 30 µM

query: Repeat with CN(C)[C@@H]1C(O)=C(C(N)=O)C(=O)[C@@]2(O)C(O)=C3C(=O)c4c(O)ccc(Cl)c4[C@@](C)(O)[C@H]3C[C@@H]12
result: > 30 µM

query: Repeat with CC[C@H]1OC(=O)[C@H](C)C(=O)[C@H](C)[C@@H](O[C@@H]2O[C@H](C)C[C@H](N(C)C)[C@H]2O)[C@](C)(OC)C[C@@H](C)C(=O)[C@H](C)[C@H]2N(CCCCn3cnc(-c4cccnc4)c3)C(=O)O[C@]12C
result: > 30 µM

query: Repeat with COc1ccc(CN(CCN(C)C)c2ccccn2)cc1
result: > 30 µM

query: Repeat with CC(C)OC(=O)CCC/C=C\C[C@@H]1[C@@H](/C=C/C(F)(F)COc2ccccc2)[C@H](O)C[C@@H]1O
result: > 30 µM

query: Repeat with Cc1c(N(C)CS(=O)(=O)O)c(=O)n(-c2ccccc2)n1C
result: > 30 µM

query: Repeat with COc1cc2nccc(Oc3ccc(NC(=O)C4(C(=O)Nc5ccc(F)cc5)CC4)cc3)c2cc1OC [CABOZANTINIB]
result: 9.03 µM

query: Repeat with CC(N)Cc1ccc(O)cc1 (stereo unspecified) [HYDROXYAMPHETAMINE]
result: > 30 µM

query: Repeat with OC[C@H]1O[C@@H](c2ccc(Cl)c(Cc3ccc(O[C@H]4CCOC4)cc3)c2)[C@H](O)[C@@H](O)[C@@H]1O
result: > 30 µM

query: Repeat with [H]/N=C(\N/C(=N/[H])Nc1ccc(Cl)cc1)NC(C)C
result: > 30 µM

query: Repeat with CC(C)Cc1ccc(C(C)C(=O)O)cc1 (stereo unspecified)
result: > 30 µM

query: Repeat with CN(C)CCOC(c1ccccc1)c1ccc(Br)cc1 (stereo unspecified) [BROMODIPHENHYDRAMINE]
result: > 10 µM
